Molecular target: T1, human TMEM106B (human, UniProt Q9NUM4 2-274)
T1 construct: full-length, transiently expressed on HEK293 cells, or natively expressed on HeLa, U251 and A549 cells (the cell is named under assay); also the source of the Pepscan peptides; also called huTMEM106B; huTMEM
Assay: FACS A549 10 ug/ml

[
  {
    "binder": "TM-37 (antibody, V domains shown) VH: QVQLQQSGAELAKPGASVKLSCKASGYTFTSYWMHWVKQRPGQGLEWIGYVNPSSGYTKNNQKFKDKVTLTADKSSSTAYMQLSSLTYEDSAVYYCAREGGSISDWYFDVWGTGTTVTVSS VL: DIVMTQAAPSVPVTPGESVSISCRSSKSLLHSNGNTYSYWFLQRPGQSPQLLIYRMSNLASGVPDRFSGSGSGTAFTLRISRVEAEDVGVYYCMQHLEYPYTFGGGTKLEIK",
    "measure-unit": "MFI",
    "MFI": 4210
  },
  {
    "binder": "TM-11 (antibody, V domains shown) VH: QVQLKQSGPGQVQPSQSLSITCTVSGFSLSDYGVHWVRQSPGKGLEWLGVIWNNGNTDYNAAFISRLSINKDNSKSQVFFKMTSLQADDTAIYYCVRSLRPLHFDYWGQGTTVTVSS VL: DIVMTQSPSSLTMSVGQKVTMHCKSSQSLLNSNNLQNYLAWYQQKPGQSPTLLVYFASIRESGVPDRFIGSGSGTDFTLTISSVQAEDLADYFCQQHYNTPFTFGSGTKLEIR",
    "measure-unit": "MFI",
    "MFI": 5580
  }
]
